Molecular target: T1, CEACAM1 (Sino Biological) (human, UniProt P13688 35-428, limits assumed)
T1 construct: may be the same as CEACAM1-HIS; also called hCEACAM1; biotinylated soluble CEACAM1
T1 sequence: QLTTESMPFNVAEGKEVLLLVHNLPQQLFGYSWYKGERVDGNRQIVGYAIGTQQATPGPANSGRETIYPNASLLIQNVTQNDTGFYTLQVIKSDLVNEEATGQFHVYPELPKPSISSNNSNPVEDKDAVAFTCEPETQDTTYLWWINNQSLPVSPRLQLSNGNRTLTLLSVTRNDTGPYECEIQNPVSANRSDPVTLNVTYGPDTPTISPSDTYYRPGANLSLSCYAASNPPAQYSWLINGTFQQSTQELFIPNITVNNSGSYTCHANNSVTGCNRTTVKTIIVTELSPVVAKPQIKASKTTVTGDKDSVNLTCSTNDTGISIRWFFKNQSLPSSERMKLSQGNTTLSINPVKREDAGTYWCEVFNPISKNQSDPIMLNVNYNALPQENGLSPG
Experiment: SPR multi-cycle, IgG on Protein A
MEASURED_ATTRIBUTE: koff (s⁻¹)
Reply with just the number (in s⁻¹).

He9/L6 (antibody, IgG4, V domains shown, IgG4 S241P, kappa; also called He9 / 6) VH: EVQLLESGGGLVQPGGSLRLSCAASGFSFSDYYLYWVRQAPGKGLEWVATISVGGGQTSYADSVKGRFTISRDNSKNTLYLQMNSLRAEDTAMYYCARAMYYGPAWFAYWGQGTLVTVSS VL: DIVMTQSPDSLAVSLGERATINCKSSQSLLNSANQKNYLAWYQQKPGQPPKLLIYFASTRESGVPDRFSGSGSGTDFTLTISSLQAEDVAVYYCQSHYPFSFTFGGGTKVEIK = 0.00151

The recorded koff for He3/L20 (antibody, IgG4, V domains shown, IgG4 S241P, kappa; also called He3 / 20) VH: EVQLLESGGGLVQPGGSLRLSCAASGFSFSDYYLYWVRQAPGKGLEWVATISVGGGQTSYADSVKGRFTISRDNSKNTLYLQMNSLRAEDTAMYYCTRALTYGPAWLAYWGQGTLVTVSS VL: DIVMTQSPDSLAVSLGERATINCKSSQSLLNSANQKNYLAWYQQKPGQPPKLLIYFASTRESGVPDRFSGSGSGTDFTLTISSLQAEDVAVYYCQSHFPYPLTFGGGTKVEIK is 0.0078
